assayed_system: RELB subunit;p50 subunit (Homo sapiens;Homo sapiens, UniProt Q01201;P19838 120-401;7-356)
Sequence (Q01201 120-401, chain 1 of 2): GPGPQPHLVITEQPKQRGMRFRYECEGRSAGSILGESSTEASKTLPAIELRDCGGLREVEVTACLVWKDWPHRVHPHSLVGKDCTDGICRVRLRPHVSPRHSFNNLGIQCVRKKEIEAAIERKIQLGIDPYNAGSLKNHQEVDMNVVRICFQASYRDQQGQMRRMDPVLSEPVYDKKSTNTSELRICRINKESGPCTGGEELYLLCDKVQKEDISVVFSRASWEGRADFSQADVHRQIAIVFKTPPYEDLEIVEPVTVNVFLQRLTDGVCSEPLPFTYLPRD
Sequence (P19838 7-356, chain 2 of 2): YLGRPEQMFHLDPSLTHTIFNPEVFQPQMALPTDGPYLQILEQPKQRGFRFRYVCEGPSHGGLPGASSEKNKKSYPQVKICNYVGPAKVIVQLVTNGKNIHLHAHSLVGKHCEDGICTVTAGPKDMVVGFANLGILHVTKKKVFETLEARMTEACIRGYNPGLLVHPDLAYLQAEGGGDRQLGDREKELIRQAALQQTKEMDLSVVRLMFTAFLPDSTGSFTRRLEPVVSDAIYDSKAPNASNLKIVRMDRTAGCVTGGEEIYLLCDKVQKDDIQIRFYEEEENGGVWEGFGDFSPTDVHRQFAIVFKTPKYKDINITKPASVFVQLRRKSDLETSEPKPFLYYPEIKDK
measurement_protocol: protein binding microarray; high values mean tight binding
details: dsDNA, one strand shown
Below, each entry is listed with its recorded binding signal.
recorded_endpoint: binding signal

   input_sequence   endpoint_value
0     CAATAGCCCCT    0.574 z-score
1     GGATATGCCCT    -0.93 z-score
2     CGATGTGTCCC  -0.0289 z-score
3     AAGAACACCCC    0.176 z-score
4     AGGTAGGCCCT   -0.647 z-score
5     GGGAACGCCCT   -0.197 z-score

###

assayed_system: C-Rel subunit;p52 subunit (Homo sapiens;Homo sapiens, UniProt Q04864;Q00653 1-285;4-332)
Sequence 1: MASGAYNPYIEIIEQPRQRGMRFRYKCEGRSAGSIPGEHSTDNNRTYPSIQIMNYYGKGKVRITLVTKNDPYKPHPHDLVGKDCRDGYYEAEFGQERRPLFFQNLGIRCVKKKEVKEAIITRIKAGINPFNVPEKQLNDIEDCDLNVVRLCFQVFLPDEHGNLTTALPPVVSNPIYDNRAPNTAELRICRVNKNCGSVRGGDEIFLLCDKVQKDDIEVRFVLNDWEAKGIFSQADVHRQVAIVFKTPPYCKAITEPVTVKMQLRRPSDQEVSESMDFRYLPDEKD
Sequence 2: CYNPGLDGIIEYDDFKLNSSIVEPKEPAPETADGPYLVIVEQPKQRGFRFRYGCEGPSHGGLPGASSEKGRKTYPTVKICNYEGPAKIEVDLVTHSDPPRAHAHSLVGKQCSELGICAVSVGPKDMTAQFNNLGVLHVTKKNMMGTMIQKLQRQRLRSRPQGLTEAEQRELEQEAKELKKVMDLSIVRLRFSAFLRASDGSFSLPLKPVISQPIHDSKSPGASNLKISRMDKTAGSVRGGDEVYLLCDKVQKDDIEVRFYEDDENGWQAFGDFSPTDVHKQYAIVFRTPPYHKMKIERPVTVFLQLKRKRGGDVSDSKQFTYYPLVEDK
measurement_protocol: protein binding microarray; high values mean tight binding
details: dsDNA, one strand shown
Classification field: enter Met for binding signal values not below -0.4 z-score, Not met for values below it.

    input_sequence  classification
 0     AGATGGCTCCC         Not met
 1     CAGAACTTCCC             Met
 2     AGAGAGGCCCC         Not met
 3     AAATTACTCCC             Met
 4     CGGGTGCCCCC             Met
 5     AAGTACATCCC         Not met
 6     GAATATTCCCT             Met
 7     CGAGGCACCCT         Not met
 8     CGAATATTCCC             Met
 9     AAAGGTCCCCT             Met
10     AGGGACGTCCT             Met
11     CAGAACCTCCT         Not met
12     CAAAATATCCC             Met
13     CGGGGCATCCT             Met
14     GAGAGGGTCCC             Met
15     AAATGACCCCT             Met
16     AAGATGCCCCC             Met
